METHOD SUMMARY: Chemical and isotopic stability as solutions in DMSO/phosphate buffered saline over 48 hours
REPORTED CONDITIONS: DMSO/PBS solution, 37° C., 4 h
Listing of recorded HPLC Area Percentage by entry.
READOUT KIND: HPLC Area Percentage (%)

* [2H]C([2H])([2H])C(CCCCCCCCCCC(CC(=O)O)(C([2H])([2H])[2H])C([2H])([2H])[2H])(CC(=O)O)C([2H])([2H])[2H] [Compound 3] | 98.4
* [2H]C([2H])([2H])C(CCCCCCCCCCCCCCC(C(=O)O)(C([2H])([2H])[2H])C([2H])([2H])[2H])(C(=O)O)C([2H])([2H])[2H] [Compound 8] | 94.1
* [2H]C([2H])(C(=O)O)C(C)(C)CCCCCCCCCCC(C)(C)C([2H])([2H])C(=O)O [Compound 2] | 95.4
* [2H]C([2H])([2H])C(CCCCCCCCCCCCC(C(=O)O)(C([2H])([2H])[2H])C([2H])([2H])[2H])(C(=O)O)C([2H])([2H])[2H] [Compound 7] | 95.8
* [2H]C([2H])(C(=O)O)C(C)(C)CCCCCCCCCCCCC(C)(C)C([2H])([2H])C(=O)O [Compound 5] | 98.5
* [2H]C([2H])([2H])C(CCCCCCCCCCCCC(C([2H])([2H])[2H])(C([2H])([2H])[2H])C([2H])([2H])C(=O)O)(C([2H])([2H])[2H])C([2H])([2H])C(=O)O [Compound 4] | 97.5
* [2H]C([2H])([2H])C(CCCCCCCCCCC(C([2H])([2H])[2H])(C([2H])([2H])[2H])C([2H])([2H])C(=O)O)(C([2H])([2H])[2H])C([2H])([2H])C(=O)O [Compound 1] | 97.8
* [2H]C([2H])([2H])C(CCCCCCCCCCCCC(CC(=O)O)(C([2H])([2H])[2H])C([2H])([2H])[2H])(CC(=O)O)C([2H])([2H])[2H] [Compound 6] | 97.9
